# target.or.test.system: human κ-chain (human)
# measurement.description: Kd at pH 8, method not stated; mutation ticked in Y64W PpL
experimental.readout: Kd (nM)
Give just the number in nM; leave the unit off.

Challenge: Entry L57D Y64W PpL (protein) MNIKFAGKETPETPEEPKEEVTIKVNLIFADGKIQTAEFKGTFEEATAEAYRYADLDAKVNGEWTADLEDGGNHMNIKFAGK needs its Kd filled in; supply it.
Response given: 2000
